Origin of values: patent US8822464B2

# assayed_system: human recombinant mGluR5 (Homo sapiens, UniProt P41594)
# Construct: cultured with tetracycline, hygromycin and geneticin; tetracycline withdrawn 3-7 days before the assay
# Sequence (P41594 21-1212): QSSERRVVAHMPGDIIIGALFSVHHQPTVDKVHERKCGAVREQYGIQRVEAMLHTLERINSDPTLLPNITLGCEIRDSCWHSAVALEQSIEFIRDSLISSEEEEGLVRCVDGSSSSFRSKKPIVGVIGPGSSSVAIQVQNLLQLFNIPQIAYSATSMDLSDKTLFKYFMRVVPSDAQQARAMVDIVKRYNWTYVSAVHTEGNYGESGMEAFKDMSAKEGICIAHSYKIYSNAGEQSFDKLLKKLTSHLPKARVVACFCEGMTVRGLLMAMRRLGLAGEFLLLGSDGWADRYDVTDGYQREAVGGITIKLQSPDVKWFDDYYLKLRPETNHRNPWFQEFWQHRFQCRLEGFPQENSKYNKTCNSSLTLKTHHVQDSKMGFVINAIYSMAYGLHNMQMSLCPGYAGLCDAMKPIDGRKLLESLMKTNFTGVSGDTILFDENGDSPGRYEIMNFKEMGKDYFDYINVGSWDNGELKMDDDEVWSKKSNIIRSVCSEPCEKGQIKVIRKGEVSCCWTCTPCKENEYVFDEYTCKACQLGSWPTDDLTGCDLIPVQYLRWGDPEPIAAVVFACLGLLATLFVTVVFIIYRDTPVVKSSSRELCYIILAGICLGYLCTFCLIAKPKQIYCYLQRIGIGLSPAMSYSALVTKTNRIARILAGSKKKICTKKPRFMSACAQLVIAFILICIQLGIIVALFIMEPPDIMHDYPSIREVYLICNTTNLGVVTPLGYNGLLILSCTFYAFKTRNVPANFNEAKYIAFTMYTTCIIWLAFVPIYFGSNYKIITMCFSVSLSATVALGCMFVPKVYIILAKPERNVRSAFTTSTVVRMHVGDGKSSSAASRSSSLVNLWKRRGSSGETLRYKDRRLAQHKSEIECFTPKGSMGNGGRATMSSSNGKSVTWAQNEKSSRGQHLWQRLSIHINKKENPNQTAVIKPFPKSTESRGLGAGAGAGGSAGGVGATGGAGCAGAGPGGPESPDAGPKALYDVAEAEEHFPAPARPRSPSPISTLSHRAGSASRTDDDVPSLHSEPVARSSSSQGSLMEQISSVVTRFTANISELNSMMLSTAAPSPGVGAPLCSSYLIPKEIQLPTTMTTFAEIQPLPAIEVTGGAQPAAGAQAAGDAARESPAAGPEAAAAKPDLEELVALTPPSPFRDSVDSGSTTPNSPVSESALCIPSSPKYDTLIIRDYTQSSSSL
# test_method_notes: positive modulation of mGluR5, calcium based FLIPR assay in HEK 293 cells
# conditions: HEK 293 cell line expressing human recombinant mGluR5; peak height of Ca release fluorescence signal after glutamate at approximately 5% basal stimulation; nonlinear regression
# Procedure: The positive modulation of mGluR5 is measured in a HEK 293 cell line expressing human recombinant mGluR5 and is detected with calcium based FLIPR assay. […] 20 μl of each compound solution are then transferred to the assay plate and the Ca2+ kinetic is measured to determine any intrinsic compound activity. […] The peak height of the Ca release related fluorescence signal (9-66) is used for the EC50. The EC50 of the modulation is calculated over a nonlinear regression with GraphPad Prism (Table 1).

- compound: "Cc1cc(-c2cc(-c3ccccc3)nn2CC(=O)N2CCN(c3ccccn3)CC2)ccc1F [Example 7.01.06]"
  assayed_system: "human recombinant mGluR5 (Homo sapiens, UniProt P41594)"
  units_of_measure: "nM"
  EC50: 99
- compound: "COc1cnc(N2CCN(C(=O)Cn3nc(-c4ccc(F)c(C)c4)cc3C(C)C)CC2)nc1 [Example 7.01.32]"
  assayed_system: "human recombinant mGluR5 (Homo sapiens, UniProt P41594)"
  units_of_measure: "nM"
  EC50: 75
- compound: "CCc1cc(-c2ccc(C)c(C)c2)nn1CC(=O)N1CCN(c2ncc(OC)cn2)CC1 [Example 7.01.99]"
  assayed_system: "human recombinant mGluR5 (Homo sapiens, UniProt P41594)"
  units_of_measure: "nM"
  EC50: 129
- compound: "COc1cccc(-c2cc(C3CCCCC3)n(CC(=O)N3CCN(c4ncccn4)CC3)n2)c1 [Example 7.01.17]"
  assayed_system: "human recombinant mGluR5 (Homo sapiens, UniProt P41594)"
  units_of_measure: "nM"
  EC50: 117
- compound: "O=C(Cn1nc(-c2ccc(OC(F)F)cc2)cc1-c1ccccc1)N1CCN(c2ccccn2)CC1 [Example 7.01.175]"
  assayed_system: "human recombinant mGluR5 (Homo sapiens, UniProt P41594)"
  units_of_measure: "nM"
  EC50: 10
- compound: "COc1ccnc(N2CCN(C(=O)Cn3nc(-c4ccc(F)cc4)cc3-c3ccc(F)cc3)CC2)c1 [Example 7.01.16]"
  assayed_system: "human recombinant mGluR5 (Homo sapiens, UniProt P41594)"
  units_of_measure: "nM"
  EC50: 32
- compound: "CCCc1cc(-c2ccc(F)c(C)n2)nn1CC(=O)N1CCN(c2ccccn2)CC1 [Example 7.01.186]"
  assayed_system: "human recombinant mGluR5 (Homo sapiens, UniProt P41594)"
  units_of_measure: "nM"
  EC50: 441
- compound: "CCc1cc(-c2ccc(C)c(C)c2)nn1CC(=O)N1CCN(c2cc(OC)ccn2)CC1 [Example 7.01.92]"
  assayed_system: "human recombinant mGluR5 (Homo sapiens, UniProt P41594)"
  units_of_measure: "nM"
  EC50: 302
- compound: "N#Cc1ccc(N2CCN(C(=O)Cn3nc(-c4ccccc4)cc3-c3ccccc3)CC2)nc1 [Example 7.02.08]"
  assayed_system: "human recombinant mGluR5 (Homo sapiens, UniProt P41594)"
  units_of_measure: "nM"
  EC50: 934
- compound: "O=C(Cn1nc(-c2ccccc2)cc1-c1ccccc1)N1CCN(c2ccccc2)CC1 [Example 7.02.04]"
  assayed_system: "human recombinant mGluR5 (Homo sapiens, UniProt P41594)"
  units_of_measure: "nM"
  EC50: 393
- compound: "COc1cc(N2CCN(C(=O)Cn3nc(-c4ccc(F)c(C)c4)cc3-c3ccccc3)CC2)ncn1 [Example 7.01.03]"
  assayed_system: "human recombinant mGluR5 (Homo sapiens, UniProt P41594)"
  units_of_measure: "nM"
  EC50: 11
- compound: "CCc1cc(-c2cccc(Cl)c2)nn1CC(=O)N1CCN(c2cc(OC)ncn2)CC1 [Example 7.01.116]"
  assayed_system: "human recombinant mGluR5 (Homo sapiens, UniProt P41594)"
  units_of_measure: "nM"
  EC50: 89
- compound: "CCc1cc(-c2ccc(F)cc2)nn1CC(=O)N1CCN(c2cc(OC)ccn2)CC1 [Example 7.01.75]"
  assayed_system: "human recombinant mGluR5 (Homo sapiens, UniProt P41594)"
  units_of_measure: "nM"
  EC50: 421
- compound: "Cc1cc(-c2cc(C)n(CC(=O)N3CCN(c4cccnn4)CC3)n2)ccc1F [Example 7.02.24]"
  assayed_system: "human recombinant mGluR5 (Homo sapiens, UniProt P41594)"
  units_of_measure: "nM"
  EC50: 340
- compound: "COc1cc(N2CCN(C(=O)Cn3nc(-c4ccc(C(F)F)cc4)cc3-c3ccccc3)CC2)ncn1 [Example 7.01.192]"
  assayed_system: "human recombinant mGluR5 (Homo sapiens, UniProt P41594)"
  units_of_measure: "nM"
  EC50: 15
- compound: "Cc1cc(-c2cc(CC(C)C)n(CC(=O)N3CCN(c4ncc(F)cn4)CC3)n2)ccc1F [Example 7.01.122]"
  assayed_system: "human recombinant mGluR5 (Homo sapiens, UniProt P41594)"
  units_of_measure: "nM"
  EC50: 51

* * *

# assayed_system: human recombinant mGluR5 (Homo sapiens)
# Construct: cultured with tetracycline, hygromycin and geneticin; tetracycline withdrawn 3-7 days before the assay
# test_method_notes: positive modulation of mGluR5, calcium based FLIPR assay in HEK 293 cells
# conditions: HEK 293 cell line expressing human recombinant mGluR5; peak height of Ca release fluorescence signal after glutamate at approximately 5% basal stimulation; nonlinear regression
Measured EC50 values are reported for all entries that follow.

- molecule: "O=C(Cn1nc(-c2ccccc2)cc1-c1ccc(F)cn1)N1CCN(c2ncccn2)CC1 [Example 7.01.66]"
  EC50 [nM]: 957
- molecule: "COc1ccc(-c2cc(C(C)C)n(CC(=O)N3CCN(c4ccccn4)CC3)n2)cc1 [Example 7.01.20]"
  EC50 [nM]: 183
- molecule: "Cc1cc(-c2cc(-c3ccccc3)n(CC(=O)N3CCN(c4ncccn4)CC3)n2)ncc1F [Example 7.01.157]"
  EC50 [nM]: 35
- molecule: "COc1cc(N2CCN(C(=O)Cn3nc(-c4cc(C)c(F)cn4)cc3-c3ccccc3)CC2)ncn1 [Example 7.01.159]"
  EC50 [nM]: 39
- molecule: "CCc1cc(-c2cc(C)c(F)c(C)c2)nn1CC(=O)N1CCN(c2ccccn2)CC1 [Example 7.01.139]"
  EC50 [nM]: 595
- molecule: "COc1cnnc(N2CCN(C(=O)Cn3nc(-c4ccc(F)c(C)c4)cc3C3CC3)CC2)c1 [Example 7.01.45]"
  EC50 [nM]: 1010
- molecule: "COc1cc(N2CCN(C(=O)Cn3nc(-c4cccc(C#N)c4)cc3-c3ccccc3)CC2)ncn1 [Example 7.01.170]"
  EC50 [nM]: 22
- molecule: "O=C(Cn1nc(-c2ccc(F)cn2)cc1-c1ccccc1)N1CCN(c2cccnn2)CC1 [Example 7.01.60]"
  EC50 [nM]: 1230
- molecule: "COc1cnc(N2CCN(C(=O)Cn3nc(-c4ccc(F)cc4)cc3C(C)C)CC2)nc1 [Example 7.01.89]"
  EC50 [nM]: 577
- molecule: "O=C(Cn1nc(-c2ccccc2)cc1-c1ccccc1)N1CCN(c2cccnc2)CC1 [Example 7.02.06]"
  EC50 [nM]: 581
- molecule: "COc1cc(N2CCN(C(=O)Cn3nc(-c4ccc(F)cn4)cc3-c3ccc(F)cc3)CC2)ncn1 [Example 7.01.63]"
  EC50 [nM]: 94
- molecule: "COc1ccnc(N2CCN(C(=O)Cn3nc(-c4ccc(C)cn4)cc3-c3ccccc3)CC2)c1 [Example 7.01.119]"
  EC50 [nM]: 19
- molecule: "CCCc1cc(-c2ccc(F)c(C)n2)nn1CC(=O)N1CCN(c2cc(OC)ncn2)CC1 [Example 7.01.187]"
  EC50 [nM]: 360
- molecule: "CCc1cc(-c2cc(C)c(F)c(C)c2)nn1CC(=O)N1CCN(c2ncc(OC)cn2)CC1 [Example 7.01.141]"
  EC50 [nM]: 346
- molecule: "O=C(Cn1nc(-c2cccc(Cl)c2)cc1-c1ccccc1)N1CCN(c2ncccn2)CC1 [Example 7.01.149]"
  EC50 [nM]: 12
- molecule: "Cc1cc(-c2cc(C)n(CC(=O)N3CCN(c4ncccn4)CC3)n2)ccc1F [Example 7.01.104]"
  EC50 [nM]: 39
- molecule: "CCc1cccc(-c2cc(CC)n(CC(=O)N3CCN(c4ncc(F)cn4)CC3)n2)c1 [Example 7.01.130]"
  EC50 [nM]: 471
- molecule: "N#Cc1ccccc1N1CCN(C(=O)Cn2nc(-c3ccccc3)cc2-c2ccccc2)CC1 [Example 7.01.10]"
  EC50 [nM]: 750
